Below, each entry is listed with its recorded pIC50.
# Tested on: Staphylococcus aureus MW2 (mecA+)
# procedure_summary: IC50 (growth, competition assay)
# conditions: fluorescent label: DsRed; cefoxitin: subinhibitory
pIC50: −log10 of the molar value.

Recorded pIC50, per entry:
molecule: Cc1cc2nc3c(=O)[nH]c(=O)nc-3n(C[C@H](O)[C@H](O)[C@H](O)CO)c2cc1C [Riboflavin (Vitamin B2)]
pIC50: < 3.82

molecule: Cc1c(O)c(O)cc2c1CC=C1[C@@]2(C)CC[C@@]2(C)[C@@H]3C[C@](C)(C(=O)O)CC[C@]3(C)CC[C@]12C [DIHYDROCELASTROL]
pIC50: > 5.01

Shifting focus to the molecule that follows.
Q: Which pIC50 value belongs to O=C(O)c1cn(-c2ccc(F)cc2)c2cc(N3CCNCC3)c(F)cc2c1=O [SARAFLOX] ?
A: > 5.01

----------
// reported pIC50 for each item listed
# System: Staphylococcus aureus MW2 (mecA+)
# procedure_summary: IC50 (growth, competition assay)
# conditions: fluorescent label: DsRed; cefoxitin: subinhibitory
pIC50: −log10 of the molar value.

Q: Param item = CS(=O)(=O)c1ccc([C@@H](O)[C@@H](CF)NC(=O)C(Cl)Cl)cc1 ; retrieve measured pIC50.
A: > 5.01

----------
# Test system: Staphylococcus aureus MW2 delta-mecA (mecA-)
# procedure_summary: IC50 (growth, competition assay)
# conditions: fluorescent label: DsRed; cefoxitin: subinhibitory
pIC50: −log10 of the molar value.
Measured pIC50 of individual entries

Answered cases to consult:
compound: Cc1cc2nc3c(=O)[nH]c(=O)nc-3n(C[C@H](O)[C@H](O)[C@H](O)CO)c2cc1C [Riboflavin (Vitamin B2)]
study_system: Staphylococcus aureus MW2 delta-mecA (mecA-)
pIC50: < 3.82
--
compound: O=C(O)c1cn(C2CC2)c2cc(N3CCNCC3)c(F)cc2c1=O [CIPRO]
study_system: Staphylococcus aureus MW2 delta-mecA (mecA-)
pIC50: > 5.01

Next:
Q: What does the data say about its pIC50? Entry: Cc1onc(-c2ccccc2Cl)c1C(=O)N[C@@H]1C(=O)N2[C@@H]1SC(C)(C)[C@@H]2C(=O)O [TEGOPEN]
A: > 5.01

----------
Readings of IC50 for the listed compounds
# Tested on: Staphylococcus aureus MW2 (mecA+)
# procedure_summary: IC50 (growth, competition assay)
# conditions: fluorescent label: DsRed; cefoxitin: subinhibitory

Previously resolved entries follow.
compound: N[C@@H](Cc1cc(I)c(Oc2cc(I)c(O)c(I)c2)c(I)c1)C(=O)O
IC50: < 9.85 µM
//
compound: O=c1[nH]nc(Sc2ncc([N+](=O)[O-])s2)n1-c1ccc2c(c1)OCCO2
IC50: < 9.85 µM

Q: What value of IC50 has been recorded for this entry: NC1CCN(c2c(F)cc3c(=O)c(C(=O)O)cn(C4CC4)c3c2Cl)C1 (stereo not drawn)
A: < 9.85 µM

----------
# Tested on: Staphylococcus aureus MW2 delta-mecA (mecA-)
# procedure_summary: IC50 (growth, competition assay)
# conditions: fluorescent label: DsRed; cefoxitin: subinhibitory
quantity_name: IC50

compound: CC1(C)S[C@@H]2[C@H](NC(=O)C(C(=O)O)c3ccccc3)C(=O)N2[C@H]1C(=O)O (stereo not given in full) [CARBECIN]
IC50: < 9.85 µM
//
compound: N[C@@H](C(=O)N[C@@H]1C(=O)N2C(C(=O)O)=C(Cl)CS[C@H]12)c1ccccc1 [Cefaclor (Ceclor)]
IC50: < 0.498 µM
//
compound: Oc1c(I)cc(Cl)c2cccnc12 [VIOFORM]
IC50: < 9.85 µM

Q: Given the compound O=C(O)c1cn(C2CC2)c2cc(N3CCNCC3)c(F)cc2c1=O [Ciprofloxacin (Cipro)] , what is its reported IC50?
A: 0.863 µM

Q: # query: IC50 of entry O=c1[nH]c(=O)n([C@H]2C[C@H](O)[C@@H](CO)O2)cc1F [Floxuridine]
A: < 0.498 µM

----------
# Test system: Staphylococcus aureus MW2 (mecA+)
# procedure_summary: IC50 (growth, competition assay)
# conditions: fluorescent label: DsRed; cefoxitin: subinhibitory
Kindly apply the following: MET if IC50 is less than 30 µM, NOT MET in every other case.

// known answers, use as guide
molecule: Oc1c(Cl)cc(Cl)cc1Sc1cc(Cl)cc(Cl)c1O
label_value: MET
--
molecule: COc1c(O)cc2oc3cc(O)c(CC=C(C)C)c(O)c3c(=O)c2c1CC=C(C)C
label_value: MET
--
molecule: COc1ccnc2[nH]cc(C(=O)C(=O)N3CCN(C(=O)c4ccccc4)C[C@H]3C)c12
label_value: NOT MET

Q: Given CCCCCCCCCCCCCCCCOP(=O)([O-])OCC[N+](C)(C)C [Miltefosine (Hexadecylphosphocholine)] , is recorded IC50 strictly lower than 30 µM?
A: NOT MET

Q: Does the reported IC50 of the following molecule sit strictly below 30 µM? O=C(OC[C@H]1O[C@@H](OC(=O)c2cc(O)c(O)c(OC(=O)c3cc(O)c(O)c(O)c3)c2)[C@H](OC(=O)c2cc(O)c(O)c(OC(=O)c3cc(O)c(O)c(O)c3)c2)[C@@H](OC(=O)c2cc(O)c(O)c(OC(=O)c3cc(O)c(O)c(O)c3)c2)[C@@H]1OC(=O)c1cc(O)c(O)c(OC(=O)c2cc(O)c(O)c(O)c2)c1)c1cc(O)c(O)c(OC(=O)c2cc(O)c(O)c(O)c2)c1
A: NOT MET

Q: Is IC50 strictly under 30 µM for the entry COC(=O)Nc1nc2cc(C(=O)c3cccs3)ccc2[nH]1 ?
A: MET

Q: Threshold test, IC50 < 30 µM: CN[C@@H]1[C@@H](O)[C@@H](O[C@@H]2[C@@H](O)[C@H](O[C@H]3O[C@H]([C@@H](C)O)[C@@H](O)[C@H](O)[C@H]3N)[C@@H](N)C[C@H]2N)OC[C@]1(C)O
A: MET

Q: Lab log: compare recorded IC50 with 30 µM; is it strictly lower for COc1cc(NS(C)(=O)=O)ccc1Nc1c2ccccc2nc2ccccc12 [AMSIDYL] ?
A: NOT MET

Q: Quick check: IC50 of O[C@@H](COc1cccc2ncccc12)CN1CCN([C@@H]2c3ccccc3[C@@H]3[C@H](c4ccccc42)C3(F)F)CC1 under 30 µM?
A: NOT MET

Q: Find out if reported IC50 for NC(=O)N/N=C/c1ccc([N+](=O)[O-])o1 is less than 30 µM
A: MET

Q: # strict comparison: is reported IC50 < 30 µM? input = C=CCc1ccccc1OCC(O)CNC1(C)CCC(C(C)(C)NC(=O)CBr)CC1 (centres undefined)
A: MET

Q: Is the reported IC50 for O=C1OC(c2ccc(O)cc2)(c2ccc(O)cc2)c2ccccc21 strictly below 30 µM?
A: NOT MET

----------
# Test system: Staphylococcus aureus MW2 (mecA+)
# procedure_summary: IC50 (growth, competition assay)
# conditions: fluorescent label: DsRed; cefoxitin: subinhibitory
# IC50 annotations

Sample records with IC50:
compound: CC[C@H](c1ccc(O)cc1)[C@@H](CC)c1ccc(O)cc1 [HEXESTROL]
experimental_result: < 9.85 µM

compound: N[C@@H]1CN(c2c(F)cc3c(=O)c(C(=O)O)cn([C@@H]4C[C@@H]4F)c3c2Cl)CC12CC2 [Sitafloxacin hydrate]
experimental_result: < 0.498 µM

compound: O=c1c2ccccc2[se]n1-c1ccccc1 [EBSELEN]
experimental_result: < 9.85 µM

compound: CO[C@H]1/C=C/O[C@@]2(C)Oc3c(C)c(O)c4c(O)c(c5c(nc6cc(C)ccn65)c4c3C2=O)NC(=O)/C(C)=C\C=C\[C@H](C)[C@H](O)[C@@H](C)[C@@H](O)[C@@H](C)[C@H](OC(C)=O)[C@@H]1C [Rifaximin (Xifaxan)]
experimental_result: < 0.498 µM

Q: I would be grateful if you could share the reported IC50 for O=C(Nc1ccc([N+](=O)[O-])cc1Cl)c1cc(Cl)ccc1O [NICLOSIDE] .
A: < 9.85 µM

----------
# Test system: Staphylococcus aureus MW2 (mecA+)
# procedure_summary: IC50 (growth, competition assay)
# conditions: fluorescent label: DsRed; cefoxitin: subinhibitory
pIC50: −log10 of the molar value.
Listed next: entries and their corresponding pIC50.

# example entries with known answers
compound: COC(=O)C1=C(C)NC(C)=C(C(=O)OCC(C)C)C1c1ccccc1[N+](=O)[O-] (centres undefined) [SULAR]
study_system: Staphylococcus aureus MW2 (mecA+)
pIC50: < 3.82

compound: CC[C@H]1OC(=O)[C@H](C)C(=O)[C@H](C)[C@@H](O[C@@H]2O[C@H](C)C[C@H](N(C)C)[C@H]2O)[C@](C)(OC)C[C@@H](C)C(=O)[C@H](C)[C@H]2N(CCCCn3cnc(-c4cccnc4)c3)C(=O)O[C@]12C
study_system: Staphylococcus aureus MW2 (mecA+)
pIC50: > 5.01

compound: O=C1NC(=O)/C(=C/c2cccc(C(F)(F)F)c2)S1
study_system: Staphylococcus aureus MW2 (mecA+)
pIC50: > 5.01

Q: Tell me the measured pIC50 of N#Cc1c(Cl)c(Cl)c(Cl)c(C#N)c1Cl , please.
A: > 5.01

Cited source: the supplement of paper PMC7695840
